System: Saccharomyces cerevisiae BY4741 SeMeCo community
Test: z-score of subpopulation abundance vs DMSO median, subpopulation auxotrophic for HLM; higher = larger share of this subpopulation than in DMSO controls
Settings: 10 µM; 24 h; SM minimal medium; subpopulation (auxotrophy): HLM
Where a name gives a salt, the structure may show the parent alone.
measure: z-score of subpopulation abundance

* C#CCN[C@@H]1CCc2ccccc21 | -0.17
* CN1[C@@H](CC(=O)c2ccccc2)CCC[C@H]1C[C@H](O)c1ccccc1 [Lobeline hydrochloride] | -0.48
* CN(C)CC(c1ccc(O)cc1)C1(O)CCCCC1 (configuration not stated) | -0.85
* CNCC[C@@H](Oc1ccccc1C)c1ccccc1 [Atomoxetine HCl] | -0.77
* CC1(C)S[C@@H]2[C@H](NC(=O)[C@H](NC(=O)N3CCN(S(C)(=O)=O)C3=O)c3ccccc3)C(=O)N2[C@H]1C(=O)O [Mezlocillin Sodium] | -0.19
* Cc1c[nH]c(=O)[nH]c1=O | 0.64
* C[C@@H](O)[C@H]1C(=O)N2C(C(=O)OCOC(=O)C(C)(C)C)=C(SC3CN(C4=NCCS4)C3)[C@H](C)[C@H]12 | -0.55
* CC(C)[C@H](N)C(=O)OCCOCn1cnc2c(=O)nc(N)[nH]c21 [Valaciclovir HCl] | -0.27
* O=C(O)CCC(=O)Nc1ccc(S(=O)(=O)Nc2nccs2)cc1 | -1.01
* O=C(NCCO[N+](=O)[O-])c1cccnc1 | -0.83
* N[C@@H](C(=O)N[C@@H]1C(=O)N2C(C(=O)O)=C(Cl)CS[C@H]12)c1ccccc1 | 0.3
* CCOc1ccc2ccccc2c1C(=O)N[C@@H]1C(=O)N2[C@@H]1SC(C)(C)[C@@H]2C(=O)O [Nafcillin Sodium] | -0.71
* CC[N+](C)(C)c1cccc(O)c1 [Edrophonium chloride] | -0.47
* NC(=O)Cc1cccc(C(=O)c2ccccc2)c1N | -0.23
* CC[C@H](C)C(=O)O[C@H]1C[C@H](O)C=C2C=C[C@H](C)[C@H](CC[C@@H](O)C[C@@H](O)CC(=O)O)[C@H]21 | -0.51
* CC1CCc2c(N3CCC(O)CC3)c(F)cc3c(=O)c(C(=O)O)cn1c23 (configuration not stated) | 0.15
* CC(=O)OCC1=C(C(=O)O)N2C(=O)[C@@H](NC(=O)Cc3cccs3)[C@H]2SC1 | 0.05

====

Test system: Saccharomyces cerevisiae BY4741 SeMeCo community
Assay: z-score of subpopulation abundance vs DMSO median, subpopulation auxotrophic for HUM; higher = larger share of this subpopulation than in DMSO controls
Settings: 10 µM; 24 h; SM minimal medium; subpopulation (auxotrophy): HUM
Counter-ions that a name gives are not always drawn.
Response field class: string, computed from recorded z-score of subpopulation abundance by ranges bin A: < -0.5; bin B: ≥ -0.5 and < 0.4; bin C: ≥ 0.4

• Cc1ccnc(NS(=O)(=O)c2ccc(N)cc2)n1 = bin C
• CC(=O)O[C@]1(C(C)=O)CC[C@H]2[C@@H]3C[C@H](C)C4=CC(=O)CC[C@]4(C)[C@H]3CC[C@@]21C [Medroxyprogesterone acetate] = bin B
• C=C[C@]1(C)C[C@@H](OC(=O)CSC(C)(C)CNC(=O)[C@H](N)C(C)C)[C@]2(C)[C@H](C)CC[C@]3(CCC(=O)[C@H]32)[C@@H](C)[C@@H]1O [Valnemulin HCl] = bin C
• CCCN(CCc1cccs1)[C@H]1CCc2c(O)cccc2C1 = bin A
• CN(C)CCC=C1c2ccccc2CCc2ccccc21 [Amitriptyline HCl] = bin A
• COCCCOc1ccnc(C[S+]([O-])c2nc3ccccc3[nH]2)c1C (centres undefined) [Rebeprazole sodium] = bin B
• Cc1cc(C)nc(NS(=O)(=O)c2ccc(N)cc2)n1 = bin B
• O=c1[nH]cnc2c1ncn2[C@@H]1O[C@H](CO)[C@@H](O)[C@H]1O = bin B
• Cc1ccc(Sc2ccccc2N2CCNCC2)c(C)c1 = bin B
